assay: Pharmacokinetic study in mice (IV, PO); type: in vivo, mice (C57BL/6); details: female, C57BL/6; Table D; Mouse Plasma; IV; 3 mg/kg
measure.name: Cmax at 5 min (ng/mL)
Response body: numeric value in ng/mL, unit text excluded.

Task: Give the value of Cmax at 5 min reported for the following: `O=C(N[C@H]1CC[C@@H](Oc2nc(N3CCOCC3)cc3ncccc23)CC1)c1cc[nH]c1`
Result: 2020

* * *

biological target: DNA-PK phosphorylation at Serine 2056 (Homo sapiens, UniProt P78527); construct: host or cells: FaDu; assay: Cellular Assay for Inhibition of DNA-PK Phosphorylation at Serine 2056 (FaDu cells, neocarzinostatin, sandwich ELISA); assay type: cell-based; details: Table 1
# IC50 listing for each entry below

| compound | measure.name | endpoint.value |
| --- | --- | --- |
| O=C(N[C@H]1CC[C@@H](Oc2nc(N3CCOCC3)cc3ncccc23)CC1)C1(O)CC1 | IC50 | 100 to 1000 nM |

Task: Fetch value of IC50 on DNA-PK phosphorylation at Serine 2056 (Homo sapiens, UniProt P78527) for Cc1cn([C@H]2CC[C@@H](Oc3nc(N4CCOCC4)cc4ncccc34)CC2)nc1C(F)(F)F [Compound 17e] .
Result: 100 to 1000 nM

Task: Enter IC50 (test system DNA-PK phosphorylation at Serine 2056 (Homo sapiens, UniProt P78527)) for `COc1cnc(N[C@H]2CC[C@@H](Oc3nc(N4CCOCC4)cc4ncc(NS(C)(=O)=O)cc34)CC2)nc1`
Result: < 100 nM

Task: Send back DNA-PK phosphorylation at Serine 2056 (Homo sapiens, UniProt P78527) IC50 of `NS(=O)(=O)c1cnc(N[C@H]2CC[C@@H](Oc3nc(N4CCOCC4)cc4ncccc34)CC2)nc1` only.
Result: 1000 to 10000 nM

Task: Output reported IC50 of the compound `Cc1nccnc1N[C@H]1CC[C@@H](Oc2nc(N3CCOCC3)cc3ncccc23)CC1` on DNA-PK phosphorylation at Serine 2056 (Homo sapiens, UniProt P78527).
Result: 100 to 1000 nM

Task: Specify IC50 for `FC(F)c1ccnc2cc(N3CCOCC3)nc(O[C@H]3CC[C@@H](Nc4ncccn4)CC3)c12` , system DNA-PK phosphorylation at Serine 2056 (Homo sapiens, UniProt P78527).
Result: < 100 nM

Task: Report measured IC50 on DNA-PK phosphorylation at Serine 2056 (Homo sapiens, UniProt P78527); entry: FC(F)(F)c1cn([C@H]2CC[C@@H](Oc3nc(N4CCOCC4)cc4ncccc34)CC2)cn1 [Compound 17k]
Result: < 100 nM

* * *

experiment: Pharmacokinetic study in mice (IV, PO); type: in vivo, mice (C57BL/6); conditions: female, C57BL/6; Table A; Mouse Plasma; IV; 3 mg/kg
measure.name: AUC(0-t) (ng·h/mL)
Reply with just the number (in ng·h/mL).

Task: Give the value of AUC(0-t) reported for the following: `O=C(N[C@H]1CC[C@@H](Oc2nc(N3CCOCC3)cc3ncccc23)CC1)c1ncccn1`
Result: 2330

* * *

biological target: DNA-PK (Homo sapiens); construct: purchased Invitrogen PR9107A; test: DNA-PK Assay for Biochemical Enzymatic Inhibition (ADP Glo Kinase assay); conditions: Table 1
measure.name: IC50

Task: Give a short answer stating reported IC50 for FC(F)(F)c1ccnn1[C@H]1CC[C@@H](Oc2nc(N3CCOCC3)cc3ncccc23)CC1 [Compound 17d] .
Result: 1 to 10 nM

Task: Name the recorded IC50 of the item `c1ccc(CN[C@H]2CC[C@@H](Oc3nc(N4CCOCC4)cc4ncccc34)CC2)cc1` in your answer.
Result: 10 to 150 nM

Task: Please list IC50 recorded for the compound `c1cnc(N[C@H]2CC[C@H](Oc3nc(N4CCOCC4)cc4ncccc34)CC2)nc1`
Result: 10 to 150 nM

* * *

assay: Pharmacokinetic study in mice (IV, PO); assay type: in vivo, mice (C57BL/6); settings: female, C57BL/6; Table D; Mouse Plasma; PO; 10 mg/kg
measure.name: Cmax at 5 min (ng/mL)
Please reply with the bare figure in ng/mL and do not write the unit itself.

Task: Name the recorded Cmax at 5 min of the item O=C(N[C@H]1CC[C@@H](Oc2nc(N3CCOCC3)cc3ncccc23)CC1)c1cc[nH]c1 [Compound 140] in your answer.
Result: 1240

* * *

# microsomal CLint at 0.1 uM per entry
Test: Microsomal stability assay, human liver microsomes
Format: in vitro ADME
Conditions: both sexes, human, liver microsomes, pH 7.4, 0.1 mg/mL microsomes; 0.1 uM compound
Experimental: Samples were then mixed and centrifuged. Supernatants were used for HPLC-MS/MS analysis. […] Peak areas corresponding to the test compound were recorded.

| molecule | endpoint.value |
| --- | --- |
| CS(=O)(=O)Nc1cnc2cc(N3CCOCC3)nc(O[C@H]3CC[C@@H](Nc4ncccn4)CC3)c2c1 [Compound 185] | > 116 µL/min/mg |
| O=C(N[C@H]1CC[C@@H](Oc2nc(N3CCOCC3)cc3ncccc23)CC1)c1cc[nH]c1 [Compound 140] | > 116 µL/min/mg |

Task: Please indicate microsomal CLint at 0.1 uM recorded for O=C(N[C@H]1CC[C@@H](Oc2nc(N3CCOCC3)cc3ncccc23)CC1)c1ccncc1 [Compound 113]
Result: > 116 µL/min/mg

Task: Please give measured microsomal CLint at 0.1 uM of the following entry: O=C(N[C@H]1CC[C@@H](Oc2nc(N3CCOCC3)cc3ncccc23)CC1)c1ncco1 [Compound 142]
Result: > 116 µL/min/mg

Task: Name the recorded microsomal CLint at 0.1 uM of the item c1cnc(N[C@H]2CC[C@@H](Oc3nc(N4CCOCC4)cc4ncccc34)CC2)nc1 [Compound 20a] in your answer.
Result: > 116 µL/min/mg

Task: Return microsomal CLint at 0.1 uM (reported value) for this molecule: O=C(N[C@H]1CC[C@@H](Oc2nc(N3CCOCC3)cc3ncccc23)CC1)c1cccnn1 [Compound 120]
Result: > 116 µL/min/mg

Task: In one line, give reported microsomal CLint at 0.1 uM of the entry O=C(N[C@H]1CC[C@@H](Oc2nc(N3CCOCC3)cc3ncccc23)CC1)c1ncccn1 [Compound 123] .
Result: < 116 µL/min/mg

Task: Please look at this molecule and report its microsomal CLint at 0.1 uM: O=C(N[C@H]1CC[C@@H](Oc2nc(N3CCOCC3)cc3ncccc23)CC1)c1cncs1 [Compound 137]
Result: > 116 µL/min/mg

Task: State its microsomal CLint at 0.1 uM: O=C(N[C@H]1CC[C@@H](Oc2nc(N3CCOCC3)cc3ncccc23)CC1)c1ccnnc1 [Compound 121]
Result: < 116 µL/min/mg

Task: Give the reported microsomal CLint at 0.1 uM for this molecule. COc1ccnc(C(=O)N[C@H]2CC[C@@H](Oc3nc(N4CCOCC4)cc4ncccc34)CC2)n1 [Compound 131]
Result: > 116 µL/min/mg

Task: Tell me its microsomal CLint at 0.1 uM given CS(=O)(=O)Nc1cnc2cc(N3CCOCC3)nc(O[C@H]3CC[C@@H](NC(=O)c4ncccn4)CC3)c2c1 [Compound 177] as the entry.
Result: < 116 µL/min/mg

Task: Query microsomal CLint at 0.1 uM for O=C(N[C@H]1CC[C@@H](Oc2nc(N3CCOCC3)cc3ncccc23)CC1)c1c[nH]cn1 [Compound 144]
Result: < 116 µL/min/mg

* * *

experiment: Pharmacokinetic study in rats (IV, PO); format: in vivo, Sprague-Dawley rats; conditions: male, Sprague-Dawley; Table B; Rat Plasma; PO; 10 mg/kg; read-out: Cmax (5 min)
measure.name: Cmax (ng/mL)
Write the value in ng/mL as a bare number.

Task: Entry O=C(N[C@H]1CC[C@@H](Oc2nc(N3CCOCC3)cc3ncccc23)CC1)c1ncccn1 [Compound 123] needs its Cmax filled in; supply it.
Result: 396

* * *

test system: FaDu cell line; experiment: Prodrug activation in hypoxic stirred tumour cell suspensions; assay type: in vitro ADME; details: 10 μM, 4 hours, 0.2% O2
measure.name: Fraction of prodrug converted to active form, Hypoxic 0.2% O2

The following molecules have reported results that may help.
| molecule | endpoint.value |
| --- | --- |
| CC(c1cnc([N+](=O)[O-])n1C)N(c1cnc2cc(N3CCOCC3)nc(OC3CCC(Nc4ncccn4)CC3)c2c1)S(C)(=O)=O (centres unmarked) [LFA010] | A (A is 0.15 to 1) |
| Cn1c(CN(c2cnc3cc(N4CCOCC4)nc(OC4CCC(n5ccnc5)CC4)c3c2)S(C)(=O)=O)cnc1[N+](=O)[O-] (centres unmarked) [LFA018] | B (B is 0.05 to 0.15) |
| CC(c1cnc([N+](=O)[O-])n1C)N(c1cnc2cc(N3CCOCC3)nc(OC3CCC(Nc4ncc(C#N)cn4)CC3)c2c1)S(C)(=O)=O (centres unmarked) [LFA027] | B (B is 0.05 to 0.15) |
| Cn1c(CN(c2cnc3cc(N4CCOCC4)nc(OC4CCC(Nc5ccn6nccc6n5)CC4)c3c2)S(C)(=O)=O)cnc1[N+](=O)[O-] (centres unmarked) [LFA035] | B (B is 0.05 to 0.15) |
| Cn1c(CN(c2cnc3cc(N4CCOCC4)nc(OC4CCC(Nc5ncccn5)CC4)c3c2)S(C)(=O)=O)cnc1[N+](=O)[O-] (centres unmarked) [LFA008] | B (B is 0.05 to 0.15) |

Task: # assay system FaDu cell line: give Fraction of prodrug converted to active form, Hypoxic 0.2% O2 of CC(c1cnc([N+](=O)[O-])n1C)N(c1cnc2cc(N3CCOCC3)nc(OC3CCC(Nc4ccn5nccc5n4)CC3)c2c1)S(C)(=O)=O (centres unmarked) [LFA036]
Result: A (A is 0.15 to 1)

Task: Provide Fraction of prodrug converted to active form, Hypoxic 0.2% O2, system FaDu cell line, entry Cn1c(CN(c2cnc3cc(N4CCOCC4)nc(OC4CCC(Nc5ncc(C#N)cn5)CC4)c3c2)S(C)(=O)=O)cnc1[N+](=O)[O-] (centres unmarked) [LFA026]
Result: B (B is 0.05 to 0.15)
